assay: Bioavailability in Sprague-Dawley rat at 5 mg/kg, po; type: ADME, organism-based; conditions: in vivo
recorded.metric: bioavailability (%)

* CC[C@@H](C)Nc1nc2ccc(-c3c(-c4ccccc4F)n[nH]c3N)cc2s1 | 24

----------
target: Mitogen-activated protein kinase 14 (Homo sapiens, UniProt Q16539); assay: Inhibition of p38alpha
Sequence (Q16539 whole entry): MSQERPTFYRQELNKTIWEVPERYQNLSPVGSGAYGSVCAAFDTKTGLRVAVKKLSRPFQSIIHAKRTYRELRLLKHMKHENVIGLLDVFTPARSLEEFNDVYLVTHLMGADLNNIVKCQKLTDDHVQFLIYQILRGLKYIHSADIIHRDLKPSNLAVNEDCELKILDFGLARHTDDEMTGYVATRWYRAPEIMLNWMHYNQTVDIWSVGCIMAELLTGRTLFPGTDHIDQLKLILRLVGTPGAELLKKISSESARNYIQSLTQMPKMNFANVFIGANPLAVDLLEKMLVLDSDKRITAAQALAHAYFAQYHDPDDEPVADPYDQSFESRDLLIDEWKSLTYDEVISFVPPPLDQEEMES
recorded.metric: IC50

* CC(C)Nc1nc2ccc(-c3[nH]cnc3-c3ccccc3F)cc2s1 | 3.3 nM
* Cc1ccc(-n2nccc2-c2ccc3nc(NC(C)C)sc3c2)cc1 | > 1000 nM
* CCNc1nc2ccc(-c3ocnc3-c3ccccc3F)cc2s1 | 12 nM
* CC[C@H](C)Nc1nc2ccc(-c3c(-c4ccccc4F)n[nH]c3N)cc2s1 | 5.5 nM
* CC[C@@H](C)Nc1nc2ccc(-c3[nH]cnc3-c3ccccc3F)cc2s1 | 1.6 nM
* Cc1cccc(-n2nccc2-c2ccc3nc(NC(C)C)sc3c2)c1 | 33 nM
* CC[C@@H](C)Nc1nc2ccc(-c3ocnc3-c3ccccc3F)cc2s1 | 6.5 nM
* CC(C)Nc1nc2ccc(-c3[nH]cnc3-c3ccccc3)cc2s1 | 7.1 nM
* CC(C)Nc1nc2ccc(-c3ccnn3-c3cccc(Cl)c3)cc2s1 | 72 nM
* CC[C@@H](C)Nc1nc2ccc(-c3c(-c4ccccc4F)nn(CC)c3N)cc2s1 | 17 nM
* CC(C)Nc1nc2ccc(-c3ocnc3-c3ccccc3)cc2s1 | 21 nM
* CC(C)Nc1nc2ccc(-c3ccnn3-c3ccccc3Cl)cc2s1 | 175 nM
* CC(C)Nc1nc2ccc(-c3ccnn3-c3ccc(F)cc3)cc2s1 | 48 nM
* CC[C@@H](C)Nc1nc2ccc(-c3c(-c4ccccc4F)nn(C)c3N)cc2s1 | 11 nM
* Fc1ccccc1-c1ncoc1-c1ccc2ncsc2c1 | 47 nM
* CC(C)Nc1nc2ccc(-c3ccnn3-c3ccccc3F)cc2s1 | 20 nM
* CC[C@H](C)Nc1nc2ccc(-c3[nH]cnc3-c3ccccc3F)cc2s1 | 2.7 nM
* CC(C)Nc1nc2ccc(-c3ccnn3-c3ccccc3)cc2s1 | 21 nM
* Nc1nc2ccc(-c3ocnc3-c3ccccc3F)cc2s1 | 16 nM
* Cc1ccccc1-n1nccc1-c1ccc2nc(NC(C)C)sc2c1 | 146 nM
* CC(C)Nc1nc2ccc(-c3ccnn3-c3cccc(F)c3)cc2s1 | 33 nM
* CC(C)Nc1nc2ccc(-c3c(-c4ccccc4F)n[nH]c3N)cc2s1 | 3.7 nM
* CC[C@@H](C)Nc1nc2ccc(-c3c(-c4ccccc4F)n[nH]c3N)cc2s1 | 3.2 nM
* CC(C)Nc1nc2ccc(-c3ccnn3-c3ccc(Cl)cc3)cc2s1 | > 1000 nM
* CC[C@H](C)Nc1nc2ccc(-c3ocnc3-c3ccccc3F)cc2s1 | 10 nM

----------
tested on: PBMC; experiment: Inhibition of LPS-induced TNFalpha production in human PBMC; format: functional, cell-based
recorded.metric: log10 IC50 (log10 of the value in nM)

* CC(C)Nc1nc2ccc(-c3[nH]cnc3-c3ccccc3F)cc2s1 | 1.54
* CC(C)Nc1nc2ccc(-c3ocnc3-c3ccccc3F)cc2s1 | 1.60
* CC[C@H](C)Nc1nc2ccc(-c3c(-c4ccccc4F)n[nH]c3N)cc2s1 | 1.89
* Cc1cccc(-n2nccc2-c2ccc3nc(NC(C)C)sc3c2)c1 | 2.23
* CC[C@@H](C)Nc1nc2ccc(-c3c(-c4ccccc4F)n[nH]c3N)cc2s1 | 1.59
* CC(C)Nc1nc2ccc(-c3c(-c4ccccc4F)n[nH]c3N)cc2s1 | 1.71
* CC(C)Nc1nc2ccc(-c3ccnn3-c3cccc(Cl)c3)cc2s1 | 2.37
* Nc1nc2ccc(-c3ocnc3-c3ccccc3F)cc2s1 | 2.39
* CC[C@@H](C)Nc1nc2ccc(-c3[nH]cnc3-c3ccccc3F)cc2s1 | 1.11
* CC[C@@H](C)Nc1nc2ccc(-c3c(-c4ccccc4F)nn(C)c3N)cc2s1 | 2.07
